assay: NCI Yeast Anticancer Drug Screen. Data for the CLN2oe strain (AID 163);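 further: 0% = growth of vehicle-only control cultures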; details: S. cerevisiae CLN2oe strain, at 100.0 µM, active compounds read high
About 79,000 compounds went through this panel and 15% of them were active in at least one assay; those are over-represented in the sample as a whole. Active and inactive are the calls of the source. No stated cut-off is given here; in the data, active means growth inhibition above about 70%; inactive means the rest.
Provide the reported growth inhibition of each item.

[[record]]
molecule = "COc1ccccc1/C=C\\C(=O)C1COCN1 (stereo unspecified)"
result_value = "98% (active)"

[[record]]
molecule = "CCCCCCCCCC(=O)N(CCC)CCC"
result_value = "98% (active)"

[[record]]
molecule = "S=C1C(=Nc2ccccc2)N(c2ccccc2)/C(=N\\c2ccccn2)N1c1ccccc1"
result_value = "97% (active)"


Please state growth inhibition for every molecule in the list that follows.
1. CCOc1ccc(N)c(S)c1
2. CC(=O)O/N=C1C=C/C(=C(/C#N)c2ccccc2)C=C/1C

Result:
["91% (active)", "96% (active)"]

Batch request: growth inhibition per item, same order as input.
1. CCC(/C=C/c1ccccc1)=N\Nc1ccc(Cl)c(Cl)c1
2. CC1(c2ccccc2)O[C@@H]2C[C@H]3[C@@H]4CCC5=CC(=O)C=C[C@]5(C)[C@@]4(F)[C@@H](O)C[C@]3(C)[C@]2(C(=O)CO)O1 (stereo partly specified)
3. O=C1C=CC(=Nc2cccc3c2-c2ccccc2C3=O)O1
4. Cc1cccc2c1C1c3c(C)cccc3C(CC(=O)O)CC1CC2 (stereo unspecified)
5. CCCCCCCCSC1=C(Cl)C(=O)C(OC)=C(OC)C1=O
6. CCCCOc1ccc2nc(C)cc(N=[N+]=[N-])c2c1

Result:
89% (active)
98% (active)
98% (active)
88% (active)
80% (active)
64% (inactive)
